Tested on: FADD−/− Jurkat cells
Experiment: Necroptosis inhibition assay, TNF-α-induced necroptosis (CellTiter-Glo 2.0)
Format: cell-based, human
Conditions: compound 1 μM; TNF-α 15 ng/mL
Lab note: anything with Necroptosis inhibition assay (Rescue %) 1 μM at or over 30% counts as true; the rest go in false.

Examples from the recorded data:
- compound: "Nc1ncc(-c2cnn(C3CCN(CCOCCOCCOCCNC(=O)COc4ccc5c(c4)C(=O)N(C4CCC(=O)NC4=O)C5=O)CC3)c2)nc1C(=O)O[C@@H](C(=O)Nc1ccc(F)cc1)c1ccccc1 (some centres unmarked)"
  class-label: "false"
- compound: "Nc1ncc(-c2cnn(C3CCN(CC4CCN(C(=O)C5CCN(c6cccc7c6C(=O)N(C6CCC(=O)NC6=O)C7=O)CC5)CC4)CC3)c2)nc1C(=O)O[C@@H](C(=O)Nc1ccc(F)cc1)c1ccccc1 (some centres unmarked)"
  class-label: "true"
- compound: "Nc1ncc(-c2cnn(C3CCN(CCOC4CCN(c5cccc6c5C(=O)N(C5CCC(=O)NC5=O)C6=O)CC4)CC3)c2)nc1C(=O)OC(C(=O)Nc1ccc(F)cc1)c1ccccc1 (centres unmarked)"
  class-label: "true"
- compound: "Nc1ncc(-c2ccc(N3CCN(CCOCCOCCNC(=O)COc4cccc5c4C(=O)N(C4CCC(=O)NC4=O)C5=O)CC3)nc2)nc1C(=O)OC(C(=O)Nc1ccc(F)cc1)c1ccccc1 (centres unmarked)"
  class-label: "false"

Inquiry: Confirm if Necroptosis inhibition assay (Rescue %) 1 μM reported for the compound Nc1ncc(-c2cnn(C3CCN(CC4CN(C(=O)CNc5ccc6c(c5)C(=O)N(C5CCC(=O)NC5=O)C6=O)CCO4)CC3)c2)nc1C(=O)OC(C(=O)Nc1ccc(F)cc1)c1ccccc1 (centres unmarked) is 30% or above.
Reply text: true

Measured values drawn from patent US20240252488A1 for this set.
